B1: NF2 (merlin) isoform 7, human, full length (507 aa, lacks exons 2-3 = isoform-1 residues 39-121; exon-16 C-terminus), P35240-4 (parent)
chain: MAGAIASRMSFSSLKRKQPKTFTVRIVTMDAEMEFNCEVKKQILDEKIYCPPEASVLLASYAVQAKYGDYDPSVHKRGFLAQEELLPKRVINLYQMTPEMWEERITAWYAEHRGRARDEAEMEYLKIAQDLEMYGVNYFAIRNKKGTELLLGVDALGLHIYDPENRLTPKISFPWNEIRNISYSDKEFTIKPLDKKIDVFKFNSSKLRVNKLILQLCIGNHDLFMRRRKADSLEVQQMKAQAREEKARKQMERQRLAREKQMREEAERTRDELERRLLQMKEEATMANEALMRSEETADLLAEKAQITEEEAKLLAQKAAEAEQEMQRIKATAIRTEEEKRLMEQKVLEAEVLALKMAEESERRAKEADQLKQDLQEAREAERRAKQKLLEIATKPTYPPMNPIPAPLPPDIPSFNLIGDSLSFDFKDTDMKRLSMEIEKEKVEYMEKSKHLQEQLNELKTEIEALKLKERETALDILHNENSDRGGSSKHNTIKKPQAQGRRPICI

Variants of: B1
protocol notes: reverse yeast two-hybrid deep mutational scan (rY2H-seq): NF2 isoform 7 mutant library as bait mated with wild-type prey strains; selection on medium lacking adenine for non-interacting pairs; NextSeq paired-end sequencing; enrichment vs …
test settings: with KDM1A (lysine-specific histone demethylase 1A; the table's label AOF2 is a gene synonym of KDM1A), O60341; yeast diploids after mating (RBait_S3 x RPrey_S3), 30 °C, selection for reporter genes on NB agar; human tyrosine kinase ABL2 co-expressed as the active kinase …; HIGHER = WEAKER BINDING (the opposite of display enrichments): higher = stronger loss of interaction: reverse Y2H selects yeast in which bait and prey do NOT interact (growth without adenine), so a …; hits-only table; scale: rY2H score; numbering: uniprot, sequence starts at 1
measured property: enrichment

variant spec | measured property | experimental value
E391R | enrichment | 2.32
N143M | enrichment | 2.18
R115C | enrichment | 3.91
T297A | enrichment | 2.94
K15A | enrichment | 2.57
K356E | enrichment | 1.91
K144L | enrichment | 3.56
N402E | enrichment | 1.73
N137L | enrichment | 1.53
G419E | enrichment | 4.86
I412H | enrichment | 6.45
